Data provenance is the Biogen ADME set (Fang et al. 2023).

Catalogue of MDR1-MDCK efflux ratio readings, one per entry.
RECORDED_METRIC: MDR1-MDCK efflux ratio

[[record]]
molecule = "CC(C)c1nc2c(n1C)CCN(c1ncnc3ccsc13)C2"
measured_value = 3.28

[[record]]
molecule = "Cc1c(Cl)cccc1NC(=O)C(C)N1CCCN(c2nccs2)CC1 (stereo not drawn)"
measured_value = 0.958

[[record]]
molecule = "CCNC(=O)N1CCC(c2nc(-c3ccccc3)no2)CC1"
measured_value = 0.841

[[record]]
molecule = "CC(C)(C)Sc1c(CC(C)(C)C(=O)O)n(Cc2ccc(Cl)cc2)c2ccc(OCc3ccc4ccccc4n3)cc12"
measured_value = 2.37

[[record]]
molecule = "COc1ccc(CN2CCN(c3cc(C)nc(N)n3)CC2)cc1OC"
measured_value = 5.7

[[record]]
molecule = "CCc1nc(C)c(Cn2ccnc2-c2cnc(N3CCCC3)nc2)s1"
measured_value = 4.25

[[record]]
molecule = "CCN(CC)C(=O)CSCc1cncc(F)c1"
measured_value = 0.711

[[record]]
molecule = "CC(=O)N1CCN(c2nc(C(F)(F)F)nc3sc(C)c(C)c23)CC1"
measured_value = 1.22


----------
Catalogue of intrinsic clearance, human liver microsomes readings, one per entry.
RECORDED_METRIC: intrinsic clearance, human liver microsomes (mL/min/kg)

[[record]]
compound = "Cc1cc(Nc2ncccn2)cc(C2CCCN(CC(=O)Nc3ccc(F)cc3)C2)n1 (configuration not stated)"
reading_qualifier = "="
measured_value = 64.4

[[record]]
compound = "O=C(Nc1nc(-c2ccccn2)cs1)c1ccc(F)cc1Cl"
reading_qualifier = "="
measured_value = 82.2

[[record]]
compound = "CC1(C)CCCN1C(=O)c1c(F)cc(C#N)cc1F"
reading_qualifier = "≤"
measured_value = 4.74

[[record]]
compound = "O=C1CNC(=O)N1CCCN1CCc2sccc2C1"
reading_qualifier = "≤"
measured_value = 4.74

[[record]]
compound = "CCCOc1ccn2c(C(C)=O)cc(-c3ccccc3S(C)(=O)=O)c2c1"
reading_qualifier = "="
measured_value = 56.1

[[record]]
compound = "Cn1ccc2c(C(=O)Nc3ncn(Cc4cccnc4)n3)cccc21"
reading_qualifier = "≤"
measured_value = 4.74

[[record]]
compound = "Nc1n[nH]cc1-c1cc(Cl)ccc1Oc1cc(F)c(S(=O)(=O)Nc2cscn2)cc1Cl"
reading_qualifier = "="
measured_value = 11.6

[[record]]
compound = "Cc1c(C(=O)Nc2ccc(N3C[C@@H](C)O[C@H](C)C3)nc2)cccc1-c1ccc(OC(F)(F)F)cc1"
reading_qualifier = "="
measured_value = 24

[[record]]
compound = "CSc1ccc(C)c(C(=O)NCCN2CCC(C)CC2)c1"
reading_qualifier = "="
measured_value = 39.6

[[record]]
compound = "O=C(c1ccccc1)N1CCN2C(=O)N(Cc3ccccc3)C(=O)[C@H]2C1"
reading_qualifier = "="
measured_value = 6.77

[[record]]
compound = "O=c1c(CO)cc2cc3c(cc2n1Cc1ccccn1)CCC3"
reading_qualifier = "="
measured_value = 12.6

[[record]]
compound = "Cc1oc(C)c(C(=O)N(C)Cc2ccccc2N2CCOCC2)c1C"
reading_qualifier = "="
measured_value = 916

[[record]]
compound = "Cc1nc2cc(NC(=O)CCc3c(C)noc3C)ccc2o1"
reading_qualifier = "≤"
measured_value = 4.74

[[record]]
compound = "C[C@H](C(=O)Nc1nc2ccccc2[nH]1)N1Cc2ccccc2C1=O"
reading_qualifier = "≤"
measured_value = 4.74

[[record]]
compound = "O=C(NC1CCCC1)C1=CCN(C(=O)C2CC2)C1"
reading_qualifier = "≤"
measured_value = 4.74

[[record]]
compound = "Nc1nc2ccccc2n1C1CCCC1"
reading_qualifier = "="
measured_value = 37.1

[[record]]
compound = "CN1CCC(=C2c3ccccc3CCc3sccc32)CC1"
reading_qualifier = "="
measured_value = 15.1

[[record]]
compound = "COc1ccc(NC(=O)C(C)N2CCCN(c3ccc(C(F)(F)F)cn3)CC2)cc1 (configuration not stated)"
reading_qualifier = "="
measured_value = 391

[[record]]
compound = "CN(c1ncc(F)cn1)[C@H]1CCCNC1"
reading_qualifier = "≤"
measured_value = 4.74

[[record]]
compound = "CN1CCN(c2oc(-c3cccc4ccccc34)nc2C#N)CC1"
reading_qualifier = "="
measured_value = 94.3

[[record]]
compound = "O=C1CN(C(=O)c2ccc(F)cc2)CCN1"
reading_qualifier = "≤"
measured_value = 4.74

[[record]]
compound = "COc1ccc(CNC(=O)CCSc2nc3c(=O)n(C)c(=O)n(C)c3n2C)cc1"
reading_qualifier = "="
measured_value = 52


----------
Catalogue of MDR1-MDCK efflux ratio readings, one per entry.
RECORDED_METRIC: MDR1-MDCK efflux ratio

[[record]]
chemical_smiles = "Cc1cccc(NCCc2cn3c(n2)CCCC3)n1"
recorded_metric = "MDR1-MDCK efflux ratio"
measured_value = 3.58

[[record]]
chemical_smiles = "CC1(C)OCCn2c1nc1c(N3CCOCC3)nc(-c3cnc(N)nc3)nc12"
recorded_metric = "MDR1-MDCK efflux ratio"
measured_value = 1.31

[[record]]
chemical_smiles = "O=C(NC1CCCCCC1)c1ccc(-c2cnco2)cc1"
recorded_metric = "MDR1-MDCK efflux ratio"
measured_value = 0.516

[[record]]
chemical_smiles = "O=C(O)c1ccc(-c2c[nH]c3ncc(-c4ccccc4)cc23)cc1C1CCCC1"
recorded_metric = "MDR1-MDCK efflux ratio"
measured_value = 1.54

[[record]]
chemical_smiles = "COc1cc(OC)cc(-c2nnc(SCC(=O)Nc3cccc(C(=O)O)c3)s2)c1"
recorded_metric = "MDR1-MDCK efflux ratio"
measured_value = 0.928

[[record]]
chemical_smiles = "Cc1nnc2ncc(-c3cccc4ccnn34)cn12"
recorded_metric = "MDR1-MDCK efflux ratio"
measured_value = 0.468

[[record]]
chemical_smiles = "Cc1cccc(OCC(=O)Nc2ccc3c(c2)C(=O)N(c2ccccc2)C3=O)c1"
recorded_metric = "MDR1-MDCK efflux ratio"
measured_value = 15.9

[[record]]
chemical_smiles = "Cc1nnc(N2CC[C@H](O)C2)c(C#N)c1C"
recorded_metric = "MDR1-MDCK efflux ratio"
measured_value = 1.3

[[record]]
chemical_smiles = "CCc1cc(-c2ccc(OC)c3ncccc23)nc(N2CCOCC2)n1"
recorded_metric = "MDR1-MDCK efflux ratio"
measured_value = 0.848


----------
# MEASUREMENT_CONTEXT: pH 6.8
RECORDED_METRIC: aqueous solubility (µg/mL)

[[record]]
molecule = "Cc1ccc(C(=O)NC[C@H]2Cn3ccnc3CO2)cc1"
recorded_metric = "aqueous solubility"
measured_value = 30.4

[[record]]
molecule = "NCc1cccnc1OCc1ccccc1"
recorded_metric = "aqueous solubility"
measured_value = 25.5

[[record]]
molecule = "OC(Cn1cncn1)(Cn1cncn1)c1ccc(F)cc1F"
recorded_metric = "aqueous solubility"
measured_value = 42.9

[[record]]
molecule = "COc1cc2c(cc1OC)CN(C(=O)C1CCCN(C(=O)OC(C)(C)C)C1)CC2 (centres undefined)"
recorded_metric = "aqueous solubility"
measured_value = 61.9


----------
RECORDED_METRIC: intrinsic clearance, rat liver microsomes

[[record]]
molecule = "Cn1cc(C(C)(C)NC(=O)C#Cc2ccc3c(c2)OCO3)cn1"
measured_value = "51.1 mL/min/kg"

[[record]]
molecule = "CN1CCC(CNc2nccc3cccnc23)CC1"
measured_value = "1520 mL/min/kg"

[[record]]
molecule = "CCn1nc(Cc2ccc(OC)cc2)nc1Cc1sc(C)nc1C"
measured_value = "233 mL/min/kg"

[[record]]
molecule = "COc1cc2c(cc1OC)CN(C(=O)C1CCCN(C(=O)OC(C)(C)C)C1)CC2 (stereo not drawn)"
measured_value = "643 mL/min/kg"

[[record]]
molecule = "Fc1cccc(CCNCc2cc(-c3ccccc3)cn3nnnc23)c1"
measured_value = "1720 mL/min/kg"

[[record]]
molecule = "CC1(C)O[C@@](C)([C@H]2CC3(CCNCC3)CO2)CC[C@@H]1O"
measured_value = "≤ 10.7 mL/min/kg"

[[record]]
molecule = "O=C(CN1CCOC(c2ccc(F)cc2)C1)Nc1ccccc1OC(F)F (stereo not drawn)"
measured_value = "566 mL/min/kg"

[[record]]
molecule = "Cn1cc(Nc2nccc(N3CC4CCC(C3)N4C(=O)[C@@H]3CC3(F)F)n2)cn1"
measured_value = "32.5 mL/min/kg"


----------
Classification field: TRUE = fraction unbound, rat plasma at or over 0.02; FALSE = fraction unbound, rat plasma under 0.02.

[[record]]
compound = "CCc1nc(C)cn2nc(-c3cc(=O)n4cc(C5CCN(C)CC5)cc(C)c4n3)cc12"
assigned_category = "TRUE"

[[record]]
compound = "CN1CCN(S(=O)(=O)c2ccc(-c3cnc(N)c(C(=O)Nc4cccnc4)n3)cc2)CC1"
assigned_category = "TRUE"

[[record]]
compound = "N#Cc1cc(F)c(NS(=O)(=O)c2c[nH]c3cc(Cl)ccc23)cc1F"
assigned_category = "FALSE"

[[record]]
compound = "Nc1ncc(C(=O)NC2CN(C(=O)C3CC3)C2)c2ccc(-c3cccc(F)c3)nc12"
assigned_category = "TRUE"

[[record]]
compound = "CCOc1cc(CC(=O)N[C@@H](CC(C)C)c2ccccc2N2CCCCC2)ccc1C(=O)O"
assigned_category = "FALSE"

[[record]]
compound = "CCCNC(=O)NS(=O)(=O)c1ccc(Cl)cc1"
assigned_category = "TRUE"

[[record]]
compound = "CCC1=C(C)CN(C(=O)NCCc2ccc(S(=O)(=O)NC(=O)N[C@H]3CC[C@H](C)CC3)cc2)C1=O"
assigned_category = "FALSE"

[[record]]
compound = "CC1(C)CC[C@]2(NC(=O)C(C)(F)F)CC[C@]3(C)[C@H](C(=O)C=C4[C@@]5(C)C=C(C#N)C(=O)C(C)(C)[C@@H]5CC[C@]43C)[C@@H]2C1"
assigned_category = "FALSE"

[[record]]
compound = "Cn1c(C2CC2)nc2c1CCN(c1ncnc3ccsc13)C2"
assigned_category = "TRUE"

[[record]]
compound = "O=C1NCCN(C(=O)c2ccncc2)C1c1ccccc1Cl (stereo not given)"
assigned_category = "TRUE"

